assayed-target: muscarinic receptors
assay-name: Inhibition of ^3 H-oxotremorine-M binding to muscarinic receptors
experimental-setup: 3 nM ^3 H-oxotremorine-M, rat cerebral cortical membranes, 15 min, 25° C., pH 7.4; concentration to inhibit specific binding 50%; read-out: Inhibition of ^3 H-Oxo
Counter-ions that a name gives are not always drawn.
measured-metric: pIC50
The quantity pIC50 is defined as the negative base-10 logarithm of the molar concentration.

Query: # get_value(readout='pIC50', item= C=CCCCCOc1nsnc1C1=CCCN(C)C1 [Compound 33, oxalate] )
Response: 8.57
